Reported pEC50 values for a set of molecules
tested on: Parent virus (A/PR/8/34 (H1N1)); experiment: microbe, parasite or virus in culture; type: cell-based; conditions: Influenza A virus, plaque reduction assay
pEC50: −log10 of the molar value.

MOL_SMILES | pEC50
O=C1c2c(O)c(=O)ccn2N([C@@H]2c3ccccc3SCc3c2ccc(F)c3F)[C@@H]2COCCN12 | 8.77
NC(=O)c1nc(F)c[nH]c1=O | 4.65

====

test: in vivo; details: mouse, sc, 10 mg/kg

COMPOUND | half-life
O=C1c2c(O)c(=O)ccn2N([C@@H]2c3ccccc3SCc3c2ccc(F)c3F)[C@@H]2COCCN12 [baloxavir acid] | 2990 min

Values were extracted from paper PMC10675732.
